log10(IC50) values, listed per item
- system_tested: human full-length MKNK1 (Homo sapiens, UniProt Q9BUB5, T385D)
- Construct: GST (N); purchased Carna Biosciences 02-145; host or cells: insect cells (baculovirus expression system)
- Sequence (Q9BUB5 1-424 isoform Q9BUB5-2 T344D): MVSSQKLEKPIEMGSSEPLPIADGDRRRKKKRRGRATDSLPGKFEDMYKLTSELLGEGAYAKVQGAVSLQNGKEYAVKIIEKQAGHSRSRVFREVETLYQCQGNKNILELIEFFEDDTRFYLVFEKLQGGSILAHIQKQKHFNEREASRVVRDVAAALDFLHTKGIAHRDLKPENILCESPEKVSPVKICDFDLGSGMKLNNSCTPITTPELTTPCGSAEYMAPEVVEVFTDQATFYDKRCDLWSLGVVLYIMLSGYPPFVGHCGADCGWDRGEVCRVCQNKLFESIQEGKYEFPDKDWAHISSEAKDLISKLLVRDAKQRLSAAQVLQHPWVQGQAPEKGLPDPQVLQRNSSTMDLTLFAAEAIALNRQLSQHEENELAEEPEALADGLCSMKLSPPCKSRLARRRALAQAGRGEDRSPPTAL
- assay_details: MKNK1 kinase high ATP assay (TR-FRET)
- Format: biochemical
- condition_details: 2 mM ATP, after preincubation with MKNK1; read-out: MKNK1 IC50 (MKNK1 high ATP)
measured_attribute: log10(IC50) (log10 of the value in nM)

1. CC(C)Oc1cc2[nH]ncc2cc1Nc1ncnc2sc3c(c12)CCC(C(=O)N1[C@H](C)CC[C@H]1C)C3 (mixture of isomers); -0.22
2. O=C(NCc1ccc(F)cc1)C1CCc2c(sc3ncnc(Nc4ccc5[nH]ncc5c4)c23)C1 (stereo not shown); 0.48
3. CCOc1cc2[nH]ncc2cc1Nc1ncnc2sc3c(c12)CCC(C(=O)N1CC[C@H](O)C1)C3 (mixture of isomers); -0.05
4. O=C(C1CCc2c(sc3ncnc(Nc4ccc5[nH]ncc5c4)c23)C1)N1CCN(Cc2ccccc2)CC1 (racemic); 1.17
5. O=C(NCc1ccncc1)C1CCc2c(sc3ncnc(Nc4ccc5[nH]ncc5c4)c23)C1 (stereo not shown); 0.60
6. O=C(Nc1ccnnc1)C1CCc2c(sc3ncnc(Nc4ccc5[nH]ncc5c4)c23)C1 (racemic); 1.18
7. O=C(NCc1ccsc1)C1CCc2c(sc3ncnc(Nc4ccc5[nH]ncc5c4)c23)C1 (racemic); 0.51

====

- system_tested: human full-length MKNK1 (Homo sapiens, UniProt Q9BUB5, T385D)
- Construct: GST (N); purchased Carna Biosciences 02-145; host or cells: insect cells (baculovirus expression system)
- assay_details: MKNK1 kinase high ATP assay (TR-FRET)
- Assay type: biochemical
- condition_details: 2 mM ATP, after preincubation with MKNK1; read-out: MKNK1 IC50 (MKNK1 high ATP)
pIC50: −log10 of the molar value.
pIC50 values, listed per item
measured_attribute: pIC50

1. O=C(C1CCc2c(sc3ncnc(Nc4ccc5[nH]ncc5c4)c23)C1)N1CCC(CO)CC1 (racemic) [Example 132]; 7.99
2. Cc1cccc(NC(=O)C2CCc3c(sc4ncnc(Nc5ccc6[nH]ncc6c5)c34)C2)c1 (stereo not shown) [Example 16]; 8.30
3. N#Cc1ccccc1N1CCN(C(=O)C2CCc3c(sc4ncnc(Nc5ccc6[nH]ncc6c5)c34)C2)CC1 (racemic) [Example 115]; 7.82
4. CCOc1cc2[nH]ncc2cc1Nc1ncnc2sc3c(c12)CCC(C(=O)N1CC2(CCS2(=O)=O)C1)C3 (racemic) [Example 263]; 8.48
5. COc1cc2[nH]ncc2cc1Nc1ncnc2sc3c(c12)CCC(C(=O)N1CC(C#N)C1)C3 (racemic) [Example 237]; 9.52
6. COc1cc2[nH]ncc2cc1Nc1ncnc2sc3c(c12)CCC(C(=O)N(C)C(C)C)C3 (racemic) [Example 173]; 9.30
7. CC(O)CN(C)C(=O)C1CCc2c(sc3ncnc(Nc4ccc5[nH]ncc5c4)c23)C1 (racemic) [Example 122]; 7.95

====

- system_tested: human full-length MKNK1 (Homo sapiens, UniProt Q9BUB5, T385D)
- Construct: GST (N); purchased Carna Biosciences 02-145; host or cells: insect cells (baculovirus expression system)
- assay_details: MKNK1 kinase high ATP assay (TR-FRET)
- Assay type: biochemical
- condition_details: 2 mM ATP, after preincubation with MKNK1; read-out: MKNK1 IC50 (MKNK1 high ATP)
IC50 values, listed per item
measured_attribute: IC50 (nM)

1. CC(C)(C)CNC(=O)C1CCc2c(sc3ncnc(Nc4ccc5[nH]ncc5c4)c23)C1 (racemic); 20.4
2. O=C(C1CCc2c(sc3ncnc(Nc4ccc5[nH]ncc5c4)c23)C1)N1CCN(c2ccccn2)CC1 (racemic); 20.6
3. COC(=O)N1CCN(C(=O)C2CCc3c(sc4ncnc(Nc5ccc6[nH]ncc6c5)c34)C2)CC1 (racemic); 31.1
4. CN(CCCCO)C(=O)C1CCc2c(sc3ncnc(Nc4ccc5[nH]ncc5c4)c23)C1 (racemic); 16.8
5. Cn1ccc(NC(=O)C2CCc3c(sc4ncnc(Nc5ccc6[nH]ncc6c5)c34)C2)n1 (racemic); 12.4
6. O=C(CN1CCN(C(=O)C2CCc3c(sc4ncnc(Nc5ccc6[nH]ncc6c5)c34)C2)CC1)NC1CC1 (racemic); 15.3
7. O=C(NCCc1c[nH]cn1)C1CCc2c(sc3ncnc(Nc4ccc5[nH]ncc5c4)c23)C1 (racemic); 9.8
8. O=C(C1CCc2c(sc3ncnc(Nc4ccc5[nH]ncc5c4)c23)C1)N1CCN(C(=O)N2CCCC2)CC1 (centres unmarked); 20
9. CS(=O)(=O)CCCNC(=O)C1CCc2c(sc3ncnc(Nc4ccc5[nH]ncc5c4)c23)C1 (centres unmarked); 9
10. O=C(NCc1ccc2c(c1)OCO2)C1CCc2c(sc3ncnc(Nc4ccc5[nH]ncc5c4)c23)C1 (centres unmarked); 3
11. CN(Cc1cccn1C)C(=O)C1CCc2c(sc3ncnc(Nc4ccc5[nH]ncc5c4)c23)C1 (racemic); 12.4
12. CCCN(C)C(=O)C1CCc2c(sc3ncnc(Nc4cc5cn[nH]c5cc4OCC)c23)C1 (racemic); 1.2
13. CN(Cc1ccnn1C)C(=O)C1CCc2c(sc3ncnc(Nc4ccc5[nH]ncc5c4)c23)C1 (racemic); 12.6
14. CCOc1cc2[nH]ncc2cc1Nc1ncnc2sc3c(c12)CCC(C(=O)N1CCN2CCCCC2C1)C3 (racemic); 0.4
15. CCOc1cc2[nH]ncc2cc1Nc1ncnc2sc3c(c12)CCC(C(=O)N(C)C)C3 (racemic); 1.6
16. O=C(NCCc1cccs1)C1CCc2c(sc3ncnc(Nc4ccc5[nH]ncc5c4)c23)C1 (racemic); 5.8
17. CCN1CCN(C(=O)C2CCc3c(sc4ncnc(Nc5ccc6[nH]ncc6c5)c34)C2)CC1 (racemic); 15.9
18. CC(C)Oc1cc2[nH]ncc2cc1Nc1ncnc2sc3c(c12)CCC(C(=O)N1CCOCC1)C3 (racemic); 1.2
19. O=C(C1CCc2c(sc3ncnc(Nc4ccc5[nH]ncc5c4)c23)C1)N1CC(N2CCCCC2)C1 (racemic); 8.6
20. CCOc1cc2[nH]ncc2cc1Nc1ncnc2sc3c(c12)CCC(C(=O)N1CCC(C#N)C1)C3 (racemic); 1.2
21. CCOC(=O)C1CCc2c(sc3ncnc(Nc4ccc5[nH]ncc5c4C)c23)C1 (racemic); 2180
22. CCOc1cc2[nH]ncc2cc1Nc1ncnc2sc3c(c12)CCC(C(=O)N(C)CC)C3 (racemic); 0.7
23. COc1ccccc1NC(=O)C1CCc2c(sc3ncnc(Nc4ccc5[nH]ncc5c4)c23)C1 (centres unmarked); 8
24. Cc1cccc(CNC(=O)C2CCc3c(sc4ncnc(Nc5ccc6[nH]ncc6c5)c34)C2)c1 (centres unmarked); 2
25. COc1cc2[nH]ncc2cc1Nc1ncnc2sc3c(c12)CCC(C(=O)N1CCN(C)CC1)C3 (racemic); 0.5
26. CN(Cc1ccccc1)C(=O)C1CCc2c(sc3ncnc(Nc4ccc5[nH]ncc5c4)c23)C1 (racemic); 4.7
27. COC(=O)C1CCc2c(sc3ncnc(Nc4ccc5[nH]ncc5c4)c23)C1 (racemic); 8.9
28. O=C(NCCCN1CCCC1=O)C1CCc2c(sc3ncnc(Nc4ccc5[nH]ncc5c4)c23)C1 (centres unmarked); 13
29. O=C(C1CCc2c(sc3ncnc(Nc4ccc5[nH]ncc5c4)c23)C1)N1CCN(CC2CC2)CC1 (racemic); 7.3
